TARGET_DESC: UniProtKB P02774
Sequence (P02774 17-474): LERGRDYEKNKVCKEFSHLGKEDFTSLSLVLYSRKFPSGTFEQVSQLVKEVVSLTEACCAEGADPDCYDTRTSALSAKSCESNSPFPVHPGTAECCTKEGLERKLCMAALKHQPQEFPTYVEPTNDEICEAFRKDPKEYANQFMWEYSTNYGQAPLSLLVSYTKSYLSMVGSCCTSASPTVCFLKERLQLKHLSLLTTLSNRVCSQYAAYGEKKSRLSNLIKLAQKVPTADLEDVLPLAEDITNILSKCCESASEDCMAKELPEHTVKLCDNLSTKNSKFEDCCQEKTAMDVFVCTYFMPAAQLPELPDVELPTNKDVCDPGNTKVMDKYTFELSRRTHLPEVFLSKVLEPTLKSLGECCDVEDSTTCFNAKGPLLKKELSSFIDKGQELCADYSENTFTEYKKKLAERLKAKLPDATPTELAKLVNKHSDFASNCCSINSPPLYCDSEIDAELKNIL
ASSAY_TEXT: Relative Competitive Index assay, vitamin D-binding protein
CONDITION_DESCRIPTION: RCI of 1α,25(OH)2 D3 set to 100; 4° C., pH 7.4
OUTCOME_MEASURE: Vit D Binding Protein (RCI)
// no unit string in output, number only

Example entries and their recorded answers appear below.
COMPOUND	VAL
CC1=C(/C=C\C2=CCC[C@@]3(C)[C@@H]2CC[C@@H]3[C@H](C)CCCC(C)(C)O)C[C@@H](O)C[C@@H]1O	2
C=C1/C(=C\C=C2/CCC[C@]3(C)[C@@H]([C@H](C)CCCC(C)(C)O)C[C@@H]4C[C@@]243)C[C@@H](O)C[C@@H]1O	60
C[C@H](CCCC(C)(C)O)[C@H]1CC[C@H]2C3=CC=C4C[C@@H](O)C[C@H](O)[C@]4(C)[C@@H]3CC[C@]12C	-5.0
C[C@H](CCCC(C)(C)O)[C@H]1CC[C@H]2C3=CC=C4C[C@@H](O)C[C@H](O)[C@]4(C)[C@H]3CC[C@]12C	-0.3

Request: Could you tell me which Vit D Binding Protein (RCI) is on file for C=C1/C(=C\C=C2/CCC[C@]3(C)[C@@H]([C@H](C)C=C=CC(C)(C)O)CC[C@@H]23)C[C@@H](O)C[C@@H]1O [HQ] ?
Result: 11
